Listed here: items and their measured % compound remaining after incubation in 50% human plasma.
- Measurement Protocol: Stability of compounds in human plasma
- Condition Set: 6 h, 50% human plasma/PBS pH 7.4, 37° C.
Endpoint: % compound remaining after incubation in 50% human plasma (%)

{"Compound": "CCCCCCCCCCC(=O)N[C@@H](CCCCN)C(=O)N[C@@H](CCCCN)C(=O)N[C@@H](CCCCN)C(=O)N[C@@H](CCCCNC(=O)[C@H]1NC(=O)[C@H]2NC(=O)[C@H](NC(=O)[C@@H]3NC(=O)[C@H](CC(N)=O)NC(=O)[C@H](NC(=O)[C@@H](CC(C)C)NC)[C@H](O)c4ccc(c(Cl)c4)Oc4cc3cc(c4O[C@@H]3O[C@H](CO)[C@@H](O)[C@H](O)[C@H]3O[C@H]3C[C@](C)(N)[C@H](O)[C@H](C)O3)Oc3ccc(cc3Cl)[C@H]2O)c2ccc(O)c(c2)-c2c(O)cc(O)cc21)C(=O)O [MCC_000229, nC10CO-KKK-K(Vanc)-OH]", "Unit": "%", "Recorded Number": 83}
{"Compound": "CCCCCCCCCCCCCC(=O)N[C@@H](CCCCN)C(=O)N[C@@H](CCCCN)C(=O)NCC(=O)NCCNC(=O)[C@H]1NC(=O)[C@H]2NC(=O)[C@H](NC(=O)[C@@H]3NC(=O)[C@H](CC(N)=O)NC(=O)[C@H](NC(=O)[C@@H](CC(C)C)NC)[C@H](O)c4ccc(c(Cl)c4)Oc4cc3cc(c4O[C@@H]3O[C@H](CO)[C@@H](O)[C@H](O)[C@H]3O[C@H]3C[C@](C)(N)[C@H](O)[C@H](C)O3)Oc3ccc(cc3Cl)[C@H]2O)c2ccc(O)c(c2)-c2c(O)cc(O)cc21 [MCC_000226, nC13CO-KKG-NHC2NH-Vanc]", "Unit": "%", "Recorded Number": 85}
{"Compound": "CCCCCCCCCCCCCC(=O)N[C@@H](CCCCN)C(=O)N[C@@H](CCCCN)C(=O)N[C@@H](CCCCN)C(=O)N[C@@H](CCCCNC(=O)[C@H]1NC(=O)[C@H]2NC(=O)[C@H](NC(=O)[C@@H]3NC(=O)[C@H](CC(N)=O)NC(=O)[C@H](NC(=O)[C@@H](CC(C)C)NC)[C@H](O)c4ccc(c(Cl)c4)Oc4cc3cc(c4O[C@@H]3O[C@H](CO)[C@@H](O)[C@H](O)[C@H]3O[C@H]3C[C@](C)(N)[C@H](O)[C@H](C)O3)Oc3ccc(cc3Cl)[C@H]2O)c2ccc(O)c(c2)-c2c(O)cc(O)cc21)C(=O)O [MCC_000223, nC13CO-KKK-K(Vanc)-OH]", "Unit": "%", "Recorded Number": 170}
{"Compound": "CNC(CC(C)C)C(=O)NC1C(=O)NC(CC(N)=O)C(=O)NC2C(=O)NC3C(=O)NC(C(=O)NC(C(=O)NCCCCC(NC(=O)C(CCCCN)NC(=O)C(CCCCN)NC(=O)c4ccc(Oc5ccccc5)cc4)C(=O)O)c4cc(O)cc(O)c4-c4cc3ccc4O)C(O)c3ccc(c(Cl)c3)Oc3cc2cc(c3OC2OC(CO)C(O)C(O)C2OC2CC(C)(N)C(O)C(C)O2)Oc2ccc(cc2Cl)C1O (stereo not shown)", "Unit": "%", "Recorded Number": 107}
